system: NCI-H1563; experiment: relative viability (nuclei count vs DMSO), 5 days (fraction); higher = more cells survive; conditions: first compound 0.04 µM
Each entry below carries its recorded relative viability.
The reply should be a number, written without any unit.

Look over these answered cases.
INSERT INTO assay_data (molecule, endpoint_label, assay_value) VALUES
  ('Cc1sc2c(c1C)C(c1ccc(Cl)cc1)=N[C@@H](CC(=O)OC(C)(C)C)c1nnc(C)n1-2 [JQ1] + Nc1nc2[nH]cc(CCc3ccc(C(=O)N[C@@H](CCC(=O)O)C(=O)O)cc3)c2c(=O)[nH]1 [Pemetrexed] (partner 0.2 µM)', 'relative viability', 0.698),
  ('Cc1sc2c(c1C)C(c1ccc(Cl)cc1)=N[C@@H](CC(=O)OC(C)(C)C)c1nnc(C)n1-2 [JQ1] + Cc1nc(NC(=O)N2CCC[C@H]2C(N)=O)sc1-c1ccnc(C(C)(C)C(F)(F)F)c1 [Alpelisib] (partner 2 µM)', 'relative viability', 0.846),
  ('Cc1sc2c(c1C)C(c1ccc(Cl)cc1)=N[C@@H](CC(=O)OC(C)(C)C)c1nnc(C)n1-2 [JQ1] + CC(C)C[C@H](NC(=O)[C@H](Cc1ccccc1)NC(=O)c1cnccn1)B(O)O [Bortezomib] (partner 0.002 µM)', 'relative viability', 0.909);

Okay, next one:
Query string: Give the measured relative viability of Cc1sc2c(c1C)C(c1ccc(Cl)cc1)=N[C@@H](CC(=O)OC(C)(C)C)c1nnc(C)n1-2 [JQ1] + C[C@]1(O)C[C@@H](c2nc(-c3ccc4ccc(-c5ccccc5)nc4c3)c3c(N)nccn32)C1 [Linsitinib] (partner 1 µM) .
Result string: 1.28

---

test system: NCI-H2087; experiment: relative viability (nuclei count vs DMSO), 5 days (fraction); higher = more cells survive; conditions: first compound 0.04 µM
endpoint label: relative viability
Simply state the number, no unit and no words.

INSERT INTO assay_data (compound, endpoint_label, assay_value) VALUES
  ('Cc1sc2c(c1C)C(c1ccc(Cl)cc1)=N[C@@H](CC(=O)OC(C)(C)C)c1nnc(C)n1-2 [JQ1] + N=C(N)NC(=N)NCCc1ccccc1 [Phenformin] (partner 250 µM)', 'relative viability', 0.52),
  ('Cc1sc2c(c1C)C(c1ccc(Cl)cc1)=N[C@@H](CC(=O)OC(C)(C)C)c1nnc(C)n1-2 [JQ1] + Nc1ncn([C@H]2C[C@H](O)[C@@H](CO)O2)c(=O)n1 [Decitabine] (partner 2 µM)', 'relative viability', 0.316),
  ('Cc1sc2c(c1C)C(c1ccc(Cl)cc1)=N[C@@H](CC(=O)OC(C)(C)C)c1nnc(C)n1-2 [JQ1] + Cc1cc(Nc2cc(N3CCN(C)CC3)nc(Sc3ccc(NC(=O)C4CC4)cc3)n2)n[nH]1 [Tozasertib] (partner 0.1 µM)', 'relative viability', 0.253);

Query string: Suppose we examine the compound Cc1sc2c(c1C)C(c1ccc(Cl)cc1)=N[C@@H](CC(=O)OC(C)(C)C)c1nnc(C)n1-2 [JQ1] + Nc1nc2[nH]cc(CCc3ccc(C(=O)N[C@@H](CCC(=O)O)C(=O)O)cc3)c2c(=O)[nH]1 [Pemetrexed] (partner 0.2 µM) ; what relative viability value has been reported?
Result string: 0.621

---

Entries annotated with measured relative viability
test system: HCC-15; assay: relative viability (nuclei count vs DMSO), 5 days (fraction); higher = more cells survive; settings: first compound 0.4 µM
Answer with the value's number alone.

INSERT INTO assay_data (compound, assay_value) VALUES
  ('Cc1sc2c(c1C)C(c1ccc(Cl)cc1)=N[C@@H](CC(=O)OC(C)(C)C)c1nnc(C)n1-2 [JQ1] + COc1cc2c(Oc3ccc(NC(=O)C4(C(=O)Nc5ccc(F)cc5)CC4)cc3F)ccnc2cc1OCCCN1CCOCC1 [Foretinib] (partner 0.25 µM)', 0.767),
  ('Cc1sc2c(c1C)C(c1ccc(Cl)cc1)=N[C@@H](CC(=O)OC(C)(C)C)c1nnc(C)n1-2 [JQ1] + Nc1nc2[nH]cc(CCc3ccc(C(=O)N[C@@H](CCC(=O)O)C(=O)O)cc3)c2c(=O)[nH]1 [Pemetrexed] (partner 0.2 µM)', 0.19),
  ('Cc1sc2c(c1C)C(c1ccc(Cl)cc1)=N[C@@H](CC(=O)OC(C)(C)C)c1nnc(C)n1-2 [JQ1] + N=C(N)NC(=N)NCCc1ccccc1 [Phenformin] (partner 250 µM)', 0.318),
  ('Cc1sc2c(c1C)C(c1ccc(Cl)cc1)=N[C@@H](CC(=O)OC(C)(C)C)c1nnc(C)n1-2 [JQ1] + COc1cccc2cc(-c3nc([C@H]4CC[C@H](C(=O)O)CC4)n4ncnc(N)c34)[nH]c12 [OSI-027] (partner 0.5 µM)', 0.593);

The record that follows has no relative viability shown yet.
Query string: relative viability for Cc1sc2c(c1C)C(c1ccc(Cl)cc1)=N[C@@H](CC(=O)OC(C)(C)C)c1nnc(C)n1-2 [JQ1] + CC1(C)CCC(c2ccc(Cl)cc2)=C(CN2CCN(c3ccc(C(=O)NS(=O)(=O)c4ccc(N[C@H](CCN5CCOCC5)CSc5ccccc5)c(S(=O)(=O)C(F)(F)F)c4)cc3)CC2)C1 [Navitoclax] (partner 0.5 µM) ?
Result string: 0.532

---

tested on: NCI-H520; experiment: relative viability (nuclei count vs DMSO), 5 days (fraction); higher = more cells survive; conditions: first compound 0.0002 µM
endpoint label: relative viability
Answer as a number with no unit attached.

Query string: // lookup relative viability | system=NCI-H520 | key= CC(=O)O[C@@]12CO[C@@H]1C[C@H](O)[C@@]1(C)C(=O)[C@H](O)C3=C(C)[C@@H](OC(=O)[C@H](O)[C@@H](NC(=O)OC(C)(C)C)c4ccccc4)C[C@@](O)([C@@H](OC(=O)c4ccccc4)[C@H]21)C3(C)C [Docetaxel] + CS(=O)(=O)N1CCN(Cc2cc3nc(-c4cccc5[nH]ncc45)nc(N4CCOCC4)c3s2)CC1 [Pictilisib] (partner 1 µM)
Result string: 0.274

---

test system: NCI-H2405; assay: relative viability (nuclei count vs DMSO), 5 days (fraction); higher = more cells survive; settings: first compound 0.253 µM
The label is label 1 for relative viability below 0.8 and label 0 for relative viability equal to or exceeding 0.8.

For orientation, consider the following solved cases.
INSERT INTO assay_data (compound, system_tested, class) VALUES
  ('Cc1cnc(-c2cnc(NCCNc3ccc(C#N)cn3)nc2-c2ccc(Cl)cc2Cl)[nH]1 + Nc1ncn([C@H]2C[C@H](O)[C@@H](CO)O2)c(=O)n1 [Decitabine] (partner 2 µM)', 'NCI-H2405', 'label 1'),
  ('O=c1[nH]c2ccccc2n1C1CCN(CCCC(c2ccc(F)cc2)c2ccc(F)cc2)CC1 [Pimozide] + O=C(c1cc(Cc2n[nH]c(=O)c3ccccc23)ccc1F)N1CCN(C(=O)C2CC2)CC1 [Olaparib] (partner 8 µM)', 'NCI-H2405', 'label 0'),
  ('O=c1[nH]c2ccccc2n1C1CCN(CCCC(c2ccc(F)cc2)c2ccc(F)cc2)CC1 [Pimozide] + NC(=O)Nc1cc(-c2cccc(F)c2)sc1C(=O)N[C@H]1CCCNC1 [AZD7762] (partner 0.2 µM)', 'NCI-H2405', 'label 1'),
  ('Cc1cnc(-c2cnc(NCCNc3ccc(C#N)cn3)nc2-c2ccc(Cl)cc2Cl)[nH]1 + Nc1nc2[nH]cc(CCc3ccc(C(=O)N[C@@H](CCC(=O)O)C(=O)O)cc3)c2c(=O)[nH]1 [Pemetrexed] (partner 0.2 µM)', 'NCI-H2405', 'label 0'),
  ('O=c1[nH]c2ccccc2n1C1CCN(CCCC(c2ccc(F)cc2)c2ccc(F)cc2)CC1 [Pimozide] + Cc1nc(NC(=O)N2CCC[C@H]2C(N)=O)sc1-c1ccnc(C(C)(C)C(F)(F)F)c1 [Alpelisib] (partner 2 µM)', 'NCI-H2405', 'label 1');

Query string: Determine whether this compound shows relative viability lower than 0.8 (ties excluded): O=c1[nH]c2ccccc2n1C1CCN(CCCC(c2ccc(F)cc2)c2ccc(F)cc2)CC1 [Pimozide] + CC1(C)CCC(c2ccc(Cl)cc2)=C(CN2CCN(c3ccc(C(=O)NS(=O)(=O)c4ccc(N[C@H](CCN5CCOCC5)CSc5ccccc5)c(S(=O)(=O)C(F)(F)F)c4)cc3)CC2)C1 [Navitoclax] (partner 0.5 µM)
Result string: label 1

Query string: Do the same for O=c1[nH]c2ccccc2n1C1CCN(CCCC(c2ccc(F)cc2)c2ccc(F)cc2)CC1 [Pimozide] + CS(=O)(=O)CCNCc1ccc(-c2ccc3ncnc(Nc4ccc(OCc5cccc(F)c5)c(Cl)c4)c3c2)o1 [Lapatinib] (partner 2 µM) please
Result string: label 0

Query string: Next entry: Cc1cnc(-c2cnc(NCCNc3ccc(C#N)cn3)nc2-c2ccc(Cl)cc2Cl)[nH]1 + CC1(C)CCC(c2ccc(Cl)cc2)=C(CN2CCN(c3ccc(C(=O)NS(=O)(=O)c4ccc(N[C@H](CCN5CCOCC5)CSc5ccccc5)c(S(=O)(=O)C(F)(F)F)c4)cc3)CC2)C1 [Navitoclax] (partner 0.5 µM)
Result string: label 1

Provenance of the data: the supplement of paper PMC10307832
